Measured on: HIV-1 YU-2 gp120 (HIV-1 (YU-2), UniProt P35961)
Test: SPR
Measured quantity: pKd
Please note pKd is a logarithmic value: minus log10 of concentration in mol/L. Answer with that number alone.

### Prompt Which value of pKd has been reported for Fab m18 R100aA (HCDR3) (Fab, V domains shown) VH: VQLLESGPGVVKPSETLSLTCTVSGASVNNYYWTWVRQPPGKGLEWIGNVYDSGDTNYNPSLSSRLSLSMDTSKNQFSLRLSSVTAADTATYYCARYHRHFIAGPLSFDYWGRGTLVTVSS VL: LQMTQSPSFLSASVGDRVSITCRASQDIQKFLAWYQLTPGDAPKLLMYSASTLQSGVPSRFSGSGSGTEFTLTISGLQPEDFATYYCQHLKRYPYTFGQGTKLEIS in the records?
### Response 8.64

### Prompt Can you check Fab m18 P95A (LCDR3) (Fab, V domains shown) VH: VQLLESGPGVVKPSETLSLTCTVSGASVNNYYWTWVRQPPGKGLEWIGNVYDSGDTNYNPSLSSRLSLSMDTSKNQFSLRLSSVTAADTATYYCARYHRHFIRGPLSFDYWGRGTLVTVSS VL: LQMTQSPSFLSASVGDRVSITCRASQDIQKFLAWYQLTPGDAPKLLMYSASTLQSGVPSRFSGSGSGTEFTLTISGLQPEDFATYYCQHLKRYAYTFGQGTKLEIS next?
### Response 7.45

### Prompt Can you check Fab m18 D56A (HCDR2) (Fab, V domains shown) VH: VQLLESGPGVVKPSETLSLTCTVSGASVNNYYWTWVRQPPGKGLEWIGNVYDSGATNYNPSLSSRLSLSMDTSKNQFSLRLSSVTAADTATYYCARYHRHFIRGPLSFDYWGRGTLVTVSS VL: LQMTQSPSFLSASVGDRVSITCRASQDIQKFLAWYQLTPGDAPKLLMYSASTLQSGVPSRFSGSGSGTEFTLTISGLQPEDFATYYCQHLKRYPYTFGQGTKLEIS next?
### Response 7.58
